- System: OVCAR-8 ovarian
- testProtocol: NCI-60 one-dose screen, 48 h (100 = growth as untreated, 0 = no growth, -100 = all killed)
- settings: 10 µM unless noted
The panel holds about 83,000 compounds, 20% with a hit somewhere; the sample as a whole holds those more often.
parameterMeasured: growth (%)
Write the value in % as a bare number.

Query block: So what's the measured growth for this one? `COc1ccc(-c2cc(Cc3cccs3)c(=O)n(Cn3ccc4ccccc43)n2)cc1`
Result block: 99.2

Query block: So what's the measured growth for this one? CC1SC(c2c(Cl)cccc2Cl)N(NC(=O)c2[nH]c3ccc(F)cc3c2-c2ccccc2)C1=O (stereo not given)
Result block: 33.1

Query block: So what's the measured growth for this one? `CCOc1nc(-c2ccccc2)cc2c(O)c(-c3nnco3)[nH]c(=O)c12`
Result block: 30.6

Query block: So what's the measured growth for this one? O=C1CCCN1C1CCN(Cc2cc3ccccc3[nH]c2=O)c2ccccc21 (stereo not given)
Result block: 101

Query block: So what's the measured growth for this one? `COc1ccc(/C(=C2\O[C@@H]([C@H](O)CO)[C@H]3OC(C)(C)O[C@@H]23)c2cc(OC)c(OC)c(OC)c2)cc1O`
Result block: 107
